Just for reference, the supplement of paper PMC8728848 is where these values come from.

# Assay System: Gal(b1-4)GlcNAc(b1-2)Man(a1-3)[Gal(b1-4)GlcNAc(b1-2)Man(a1-6)]Man(b1-4)GlcNAc(b1-4)[Fuc(a1-6)]GlcNAc
# Experiment Summary: glycan array binding signal (z-score within array); higher = stronger binding
# Measurement Setup: glycan notation: IUPAC condensed, linker removed
This is one part of a sample in which the strongest signals are shown more often than they occur.
Listed here: items and their measured glycan array binding signal (z-score).
Form rule: numeric answer, no unit written next to it.

Known results for binders:
Binder	Value Observed
CTAEGIKKFEGDGYELFKDNFPAGEKFDNDDTNDQFYTVIF [MUB40 (Lactobacillus reuteri)]	-0.425
PpFlo1 (Pichia pastoris) (protein) MGSSHHHHHHSSGLVPRGSHMQESGDGDISDSAYACDIDATRYDGFNATIYEFQPGDGRLTRDPVFMSTGYLNRTQLHSITGVTDPGFSIYTPGVPTTTLYGIPNVNWENLLLELKGYFRAEVSGDYGLSLRNIDDSAILFFGKETAFQCCNENSISNEASTDYSLFTIFRQEGDETTNLDSFTYTQYLEAGKYYPVRTFFVNIERHAVFNFTMTLPDGTELTDFHNYIYQFGALDEEQCQA	-0.323

Bench note: what glycan array binding signal (z-score) did ECL (Erythrina cristagalli), Q6YD91 (protein) VETISFSFSEFEPGNNDLTLQGAAIITQSGVLQLTKINQNGMPAWDSTGRTLYTKPVHIWDMTTGTVASFETRFSFSIEQPYTRPLPADGLVFFMGPTKSKPAQGYGYLGVFNNSKQDNSYQTLAVEFDTFSNPWDPPQVPHIGIDVNSIRSIKTQPFQLDNGQVANVVIKYDASSKILLAVLVYPSSGAIYTIAEIVDVKQVLPEWVDVGLSGATGAQRDAAETHDVYSWSFHASLPETND show? 0.114
